Below is a list of entries, each paired with its recorded relative viability value.
- Tested on: NCI-H2347
- assay.notes: relative viability (nuclei count vs DMSO), 5 days (fraction); higher = more cells survive
- recorded.conditions: first compound 0.253 µM

>  <molecule>
COc1nc(C)cnc1NS(=O)(=O)c1cccnc1-c1ccc(-c2nnco2)cc1 [Zibotentan] + O=C(c1cc(Cc2n[nH]c(=O)c3ccccc23)ccc1F)N1CCN(C(=O)C2CC2)CC1 [Olaparib] (partner 8 µM)

>  <target.or.test.system>
NCI-H2347

>  <relative viability>
0.596

$$$$
>  <molecule>
COc1nc(C)cnc1NS(=O)(=O)c1cccnc1-c1ccc(-c2nnco2)cc1 [Zibotentan] + CC(=O)Nc1cccc(-n2c(=O)n(C3CC3)c(=O)c3c(Nc4ccc(I)cc4F)n(C)c(=O)c(C)c32)c1 [Trametinib] (partner 0.02 µM)

>  <target.or.test.system>
NCI-H2347

>  <relative viability>
0.272

$$$$

Reference source for all entries: the supplement of paper PMC10307832
